- PROCEDURE SUMMARY: in vivo
- APPLIED CONDITIONS: Sprague-Dawley, rat, po, 12 mg/kg
METRIC: half-life
Don't forget the unit after the number, please.

Reported half-life of CCc1ccc(O[C@H](C)CCOc2ccc(CCC(=O)O)c(CC)c2)c(-c2ccccn2)c1 : 3 h
